Reference for the values: patent US20250275958A1

target: GPR132 (Homo sapiens); construct: expressed in transfected cells; host or cells: HEK293 cells (transient co-transfection); assay: G protein activation (Gi BRET probes, GPR132 co-transfected in HEK293 cells); format: cell-based; details: stimulated 2 minutes, read-out: GPR132 EC50 (GPR132 agonist activity)
Reported EC50 values for a set of compounds
REPORTED_METRIC: EC50 (µM)

In [3]: df
Out[3]:
                                   compound  reported_metric  result_value
0  Cc1c(C(=O)O)oc2ccc(S(=O)(=O)N(CCc3ccccc3)Cc3ccccc3)cc12 [Example 23]             EC50           3.8
1  Cc1c(C(=O)O)oc2ccc(NC(=O)/C=C/c3cccc(I)c3)cc12 [Example 18]             EC50          0.51
2  Cc1c(C(=O)O)oc2ccc(S(=O)(=O)N(CCc3ccccc3)CCc3ccccc3)cc12 [Example 28]             EC50           2.1
3  Cc1c(C(=O)O)oc2ccc(S(=O)(=O)N(CCc3ccccc3)Cc3ccc(Br)cc3)cc12 [Example 24]             EC50           0.3
4  Cc1c(C(=O)O)oc2ccc(NC(=O)CCc3ccccc3)cc12 [Example 16]             EC50           6.5

----------
Target: GPR132 (Homo sapiens, UniProt Q9UNW8)
Construct: expressed in transfected cells; host or cells: HEK293 cells (transient co-transfection)
Sequence (Q9UNW8 1-380): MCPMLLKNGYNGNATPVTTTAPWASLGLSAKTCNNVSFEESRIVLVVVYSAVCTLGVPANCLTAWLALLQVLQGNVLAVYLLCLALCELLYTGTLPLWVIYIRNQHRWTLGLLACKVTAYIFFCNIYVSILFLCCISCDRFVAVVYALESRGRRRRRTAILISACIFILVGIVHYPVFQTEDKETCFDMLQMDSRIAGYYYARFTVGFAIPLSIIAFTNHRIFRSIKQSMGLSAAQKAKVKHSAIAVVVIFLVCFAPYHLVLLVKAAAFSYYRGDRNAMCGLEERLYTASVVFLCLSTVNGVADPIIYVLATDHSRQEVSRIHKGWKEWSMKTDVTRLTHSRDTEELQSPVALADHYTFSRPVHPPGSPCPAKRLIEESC
Experiment: G protein activation (Gi BRET probes, GPR132 co-transfected in HEK293 cells)
Type: cell-based
Details: stimulated 2 minutes, class symbols, read-out: GPR132 EC50 (GPR132 agonist activity)
Entries and their EC50 values follow.
REPORTED_METRIC: EC50

>>> print(df.to_string())
                         compound_structure      result_value
0  Cc1c(C(=O)O)oc2ccc(NC(=O)CCCCc3ccccc3)cc12  1000 to 10000 nM
1  Cc1c(C(=O)O)oc2ccc(NC(=O)/C=C/c3ccccc3)cc12     10 to 1000 nM
2  Cc1c(C(=O)O)oc2ccc(S(=O)(=O)N(CCc3ccccc3)c3ccc(Oc4ccccc4)cc3)cc12     10 to 1000 nM
3  Cc1c(C(=O)O)oc2ccc(S(=O)(=O)N(CCc3ccccc3)Cc3cccc4cccnc34)cc12  1000 to 10000 nM
4      Cc1c(C(=O)O)oc2ccc(OCCCc3ccccc3)cc12     10 to 1000 nM
